Source: ChEMBL document CHEMBL1909046

target: Acetylcholinesterase (Homo sapiens, UniProt P22303); assay: DRUGMATRIX: Acetylcholinesterase enzyme inhibition (substrate: acetylthiocholine); assay type: cell-based, HEK293; conditions: hek293; Not Active = under 50% inhibition at 10 µM
Sequence (P22303 whole entry): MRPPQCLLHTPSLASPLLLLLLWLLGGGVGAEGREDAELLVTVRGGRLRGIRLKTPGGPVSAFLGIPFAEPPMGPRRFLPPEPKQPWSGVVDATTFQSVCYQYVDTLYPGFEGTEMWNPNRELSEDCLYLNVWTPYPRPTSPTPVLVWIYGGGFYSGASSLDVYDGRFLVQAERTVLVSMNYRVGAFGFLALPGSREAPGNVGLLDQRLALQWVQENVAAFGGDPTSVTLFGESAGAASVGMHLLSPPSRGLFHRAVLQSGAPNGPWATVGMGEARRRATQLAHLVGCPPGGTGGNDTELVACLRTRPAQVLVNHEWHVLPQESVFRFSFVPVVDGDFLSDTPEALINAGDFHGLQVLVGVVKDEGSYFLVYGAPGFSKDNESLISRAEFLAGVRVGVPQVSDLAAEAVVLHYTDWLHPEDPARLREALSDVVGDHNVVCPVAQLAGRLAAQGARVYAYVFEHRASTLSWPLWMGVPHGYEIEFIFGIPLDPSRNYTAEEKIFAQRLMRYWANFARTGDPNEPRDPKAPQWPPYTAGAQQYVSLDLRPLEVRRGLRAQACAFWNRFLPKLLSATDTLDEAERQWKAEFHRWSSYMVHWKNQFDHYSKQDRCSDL

- substance: "IVERMECTIN"
  IC50: "Not Active"
- substance: "CARBOPLATIN"
  IC50: "Not Active"
- substance: "CISPLATIN"
  IC50: "Not Active"
- substance: "GOLD SODIUM THIOMALATE"
  IC50: "Not Active"
- substance: "OXALIPLATIN"
  IC50: "Not Active"

---

Target: C-C chemokine receptor type 4 (Homo sapiens, UniProt P51679); note: in other assays of this panel Not Active means under 50% inhibition at 10 µM
Sequence (P51679 whole entry): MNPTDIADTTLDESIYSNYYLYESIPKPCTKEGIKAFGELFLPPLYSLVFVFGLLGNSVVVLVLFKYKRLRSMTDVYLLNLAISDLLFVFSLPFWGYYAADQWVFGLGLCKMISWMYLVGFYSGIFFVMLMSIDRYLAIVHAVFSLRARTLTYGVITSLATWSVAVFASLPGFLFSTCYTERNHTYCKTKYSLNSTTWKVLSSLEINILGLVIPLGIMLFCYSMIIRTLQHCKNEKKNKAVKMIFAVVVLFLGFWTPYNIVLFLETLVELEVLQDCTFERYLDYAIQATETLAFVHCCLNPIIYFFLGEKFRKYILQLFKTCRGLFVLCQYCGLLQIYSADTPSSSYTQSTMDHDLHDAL
Assay type: cell membranes, Membrane
Conditions: chem-1

- compound: "CN(C)[C@@H]1C(O)=C(C(N)=O)C(=O)[C@@]2(O)C(O)=C3C(=O)c4c(O)cccc4[C@@](C)(O)[C@H]3[C@H](O)[C@@H]12 [OXYTETRACYCLINE]"
  IC50: "Not Active"
- compound: "CC[N+](CC)(CC)CCOc1cccc(OCC[N+](CC)(CC)CC)c1OCC[N+](CC)(CC)CC.[I-].[I-].[I-] [GALLAMINE TRIETHIODIDE]"
  IC50: "Not Active"
- compound: "CN[C@H](CC(C)C)C(=O)N[C@H]1C(=O)N[C@@H](CC(N)=O)C(=O)N[C@H]2C(=O)N[C@H]3C(=O)N[C@H](C(=O)N[C@H](C(=O)O)c4cc(O)cc(O)c4-c4cc3ccc4O)[C@H](O)c3ccc(c(Cl)c3)Oc3cc2cc(c3O[C@@H]2O[C@H](CO)[C@@H](O)[C@H](O)[C@H]2O[C@H]2C[C@](C)(N)[C@H](O)[C@H](C)O2)Oc2ccc(cc2Cl)[C@H]1O [VANCOMYCIN]"
  IC50: "Not Active"
- compound: "COC(=O)c1ccc(O)cc1 [METHYLPARABEN]"
  IC50: "Not Active"
- compound: "Nc1nnc(-c2cccc(Cl)c2Cl)c(N)n1 [LAMOTRIGINE]"
  IC50: "Not Active"
- compound: "CN[C@@H]1[C@@H](O)[C@@H](O[C@@H]2[C@@H](O)[C@H](O[C@H]3OC(CN)=CC[C@H]3N)[C@@H](N)C[C@H]2N)OC[C@]1(C)O [SISOMICIN]"
  IC50: "Not Active"
- compound: "CN(C)CCCC1(c2ccc(F)cc2)OCc2cc(C#N)ccc21 (stereo not drawn) [CITALOPRAM]"
  IC50: "Not Active"
- compound: "Nc1nc(=O)[nH]cc1F [FLUCYTOSINE]"
  IC50: "Not Active"
